Molecular target: MSMEG_3765 (TetR3765) (Mycobacterium smegmatis mc2155) (UniProt A0QYS0)
Sequence: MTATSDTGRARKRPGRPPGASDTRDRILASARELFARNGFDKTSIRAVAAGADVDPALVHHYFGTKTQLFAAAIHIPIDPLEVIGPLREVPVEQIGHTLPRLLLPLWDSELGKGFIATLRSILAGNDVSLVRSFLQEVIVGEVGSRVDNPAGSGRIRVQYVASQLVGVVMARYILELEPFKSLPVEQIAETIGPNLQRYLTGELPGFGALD
Assay: EMSA
Conditions: 40 mM HEPES pH 8.0, 150 mM NaCl, 20 mM MgCl2, 10% glycerol, 37 C, 20 min; 8% native PAGE, SYBR Safe
result_type: binding

Query CGGGATCCGATCCTGCGGGGCGCCGACGACCACACGCTGTCGCTGATCACCGAGTACGTCGACGTCGCACGGTTGCGGGCCGACATTATCGGCCTGCTGGAGTCCGCCGCCTGAGCCAGGCGTCGCCGACGCCGAAATGTGTCGACGCATCGTCTTCCCACCGGACGACGGCAGGCCTAGAATTCATTGCATGATGACTTCATCGCGCGATGAATTGTCAGCGACGGGGCCCG (double strand) [MSMEG_3762 upstream fragment 218 bp] yields binding of binds
